Test system: RFP-resistant M. tuberculosis
Experiment: microbe, parasite or virus in culture
Format: cell-based, Mycobacterium tuberculosis
Conditions: Mycobacterium tuberculosis, RFP-resistant M. tuberculosis No. 44; Table 8 (series 2)
MEASURE: MIC (µg/mL)

1) COc1c(N2CCNC3(CC3)C2)c(F)cc2c(=O)c(C(=O)O)cn([C@@H]3C[C@@H]3F)c12	0.78
2) COc1c(N2C[C@@H](C)N[C@@H](C)C2)c(F)cc2c(=O)c(C(=O)O)cn([C@@H]3C[C@@H]3F)c12	0.25
3) COc1c(N2CCNC(C3CC3)C2)c(F)cc2c(=O)c(C(=O)O)cn([C@@H]3C[C@@H]3F)c12 (some centres unmarked)	0.78
4) COc1c(N2CCNC(CF)C2)c(F)cc2c(=O)c(C(=O)O)cn([C@@H]3C[C@@H]3F)c12 (some centres unmarked)	0.39
5) COc1c(N2CCNC(CF)(CF)C2)c(F)cc2c(=O)c(C(=O)O)cn([C@@H]3C[C@@H]3F)c12	0.39
6) COc1c(N2CCN3CCC2C3)c(F)cc2c(=O)c(C(=O)O)cn([C@@H]3C[C@@H]3F)c12 (some centres unmarked)	0.2
7) COCC1CN(c2c(F)cc3c(=O)c(C(=O)O)cn([C@@H]4C[C@@H]4F)c3c2OC)CCN1 (some centres unmarked)	0.39
8) COc1c(C2CNC3(CCC3)CN2)c(F)cc2c(=O)c(C(=O)O)cn([C@@H]3C[C@@H]3F)c12 (some centres unmarked)	1.56

Value source: patent US7176313B2
